Tested on: P12-Ichikawa
Assay: AUC of viability dose-response curve (% viability x log10 dose units); higher = less sensitive
Details: RPMI 5 mM glucose + 10% FBS; 48 h
Property Name: AUC of viability dose-response curve

The cases that follow already have their AUC of viability dose-response curve on record.
Compound	AUC of viability dose-response curve
COc1cc(C)c(Sc2cnc(NC(=O)c3ccc(CNC(C)C(C)(C)C)cc3)s2)cc1C(=O)N1CCN(C(C)=O)CC1 (stereo unspecified)	444
CCN(CC)C(=S)SSC(=S)N(CC)CC	363
C\C1=C\C(=O)C2=C(C=CC=C2)C1=O	440

Print P12-Ichikawa AUC of viability dose-response curve for `C[C@H]1[C@H](OC(=O)CCC(=O)O)O[C@@H]2O[C@@]3(C)CC[C@H]4[C@H](C)CC[C@@H]1[C@@]24OO3` .
360

Print P12-Ichikawa AUC of viability dose-response curve for `CC(=O)O[C@@]1(CC[C@H]2[C@@H]3\C=C(C)/C4=C/C(=O)CC[C@]4(C)[C@H]3CC[C@]12C)C(C)=O` .
460

Print P12-Ichikawa AUC of viability dose-response curve for `CC1=CC=CC=C1CN2C(=O)C/3=C(/CCN(CC4=CC=CC=C4)C3)N\5CC\N=C25` .
417

Print P12-Ichikawa AUC of viability dose-response curve for `C[N+]1(C)[C@@H]2C[C@@H](OC(=O)[C@H](CO)c3ccccc3)C[C@H]1[C@@H]1O[C@@H]12.[Br-]` .
424

Print P12-Ichikawa AUC of viability dose-response curve for `CCn1c(-c2nonc2N)nc2cncc(CNC3CCNCC3)c21` .
424

Print P12-Ichikawa AUC of viability dose-response curve for `CC(C)[C@@H](C[S+](=O)([O-])C(C)C)N1C(=O)[C@@](C)(CC(=O)O)C[C@H](c2cccc(Cl)c2)[C@H]1c1ccc(Cl)cc1` .
320

Print P12-Ichikawa AUC of viability dose-response curve for `Cc1ncc(OC[C@@]2(c3cccc(F)c3)C[C@H]2C(=O)Nc2ccc(F)cn2)c(C)n1` .
474

Print P12-Ichikawa AUC of viability dose-response curve for `CC1=C(C=CC=C1)N2\C(=N/C3=C(C(=CC=C3)C)C2=O)C[N]4N=CC5=C4N=CN=C5N` .
366

Print P12-Ichikawa AUC of viability dose-response curve for `CCOC(=O)[C@H](CCc1ccccc1)N[C@H]1CCc2ccccc2N(CC(=O)O)C1=O` .
458

Print P12-Ichikawa AUC of viability dose-response curve for `O=C1Nc2ccc(Cl)cc2[C@@](C#CC2CC2)(C(F)(F)F)O1` .
395

Print P12-Ichikawa AUC of viability dose-response curve for `Cc1cccc(C)c1OCC(=O)N[C@@H](Cc1ccccc1)[C@@H](O)C[C@H](Cc1ccccc1)NC(=O)[C@H](C(C)C)N1CCCNC1=O` .
448

Print P12-Ichikawa AUC of viability dose-response curve for `CC(C)(C)C(=O)OCOP(=O)(COCCn1cnc2c(N)ncnc21)OCOC(=O)C(C)(C)C` .
287

Print P12-Ichikawa AUC of viability dose-response curve for `CC[C@H]1/C=C\C=C/C[C@@H](C)[C@H](O)[C@@](C)(O)C(=O)[C@@H](C)[C@H](O)[C@@H](C)C(=O)[C@@H](C)[C@H](O)[C@@H](C)/C=C/C(=O)O[C@@H]2[C@H](C)[C@H](CC1)O[C@]1(CC[C@H](C)[C@H](C[C@@H](C)O)O1)[C@H]2C` .
388
